Each entry below carries its reported Kd.
- Measured On: KRAS protein subtype G12D (Avi-KRAS-G12D) (Homo sapiens (Human), UniProt P01116, G12D)
- Sequence (P01116 whole entry G12D): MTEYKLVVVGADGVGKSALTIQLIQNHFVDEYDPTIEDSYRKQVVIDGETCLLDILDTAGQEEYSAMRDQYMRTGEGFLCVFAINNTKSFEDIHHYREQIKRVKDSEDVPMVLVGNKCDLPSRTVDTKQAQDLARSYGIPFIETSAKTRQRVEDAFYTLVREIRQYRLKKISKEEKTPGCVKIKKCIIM
- Assay Procedure: SPR affinity for KRAS protein subtype G12D (Biacore 8K)
- Measurement Parameters: single-cycle kinetic mode, 1:1 model, read-out: G12D KD (unit mol/L)
Enter your answer as a number in pM; do not include the unit.

Solved entries (count: 4):
Molecule	Kd [pM]
CCc1c(F)ccc2cc(O)cc(-c3nc4c5c(nc(OC[C@@]67CCCN6C[C@H](F)C7)nc5c3F)N3C[C@H]5CC[C@H](N5)[C@H]3CO4)c12 [Example 9-p1]	30
Oc1cc(Cl)c(C2CC2)c(-c2nc3c4c(nc(OC[C@@]56CCCN5C[C@H](F)C6)nc4c2F)N2C[C@H]4CC[C@H](N4)[C@H]2CO3)c1 [Example 6-p1]	100
CCc1cccc2cc(O)cc(-c3cc4nc(OC[C@@]56CCCN5C[C@H](F)C6)nc5c4c(n3)OCC3C4CCC(CN53)N4)c12 (mixture of isomers) [Diastereomeric (1:1) mixture of 2-p1 and 2-p2]	400
Oc1cc(-c2nc3c4c(nc(OC[C@@]56CCCN5C[C@H](F)C6)nc4c2F)N2C[C@H]4CC[C@H](N4)[C@H]2CO3)c2c(F)c(F)ccc2c1 [Example 8-p1]	100

Attention now turns to another entry.
Per the records, this molecule ( CCc1cccc2cc(O)cc(-c3nc4c5c(nc(OC[C@@]67CCCN6C[C@H](F)C7)nc5c3F)N3C[C@H]5CC[C@H](N5)[C@H]3CO4)c12 [Example 4-p1] ) has Kd equal to 140

----------
- Measured On: UniProt P01116
Label key: class 1 means Kd under 7 nM; class 0 means Kd of 7 nM or more.

Determine if CCc1cccc2cc(O)cc(-c3cc4nc(OC[C@@]56CCCN5C[C@H](F)C6)nc5c4c(n3)OCC3C4CCC(CN53)N4)c12 (mixture of isomers) [Diastereomeric (1:1) mixture of 2-p1 and 2-p2] shows Kd strictly lower than 7 nM.
class 0

Determine if CCc1c(F)ccc2cc(O)cc(-c3nc4c5c(nc(OC[C@@]67CCCN6C[C@H](F)C7)nc5c3F)N3C[C@H]5CC[C@H](N5)[C@H]3CO4)c12 [Example 9-p1] shows Kd strictly lower than 7 nM.
class 1

Determine if CCc1cccc2cc(O)cc(-c3nc4c5c(nc(OC[C@@]67CCCN6C[C@H](F)C7)nc5c3F)N3C[C@H]5CC[C@H](N5)[C@H]3CO4)c12 [Example 4-p1] shows Kd strictly lower than 7 nM.
class 1

Determine if Oc1cc(-c2nc3c4c(nc(OC[C@@]56CCCN5C[C@H](F)C6)nc4c2F)N2C[C@H]4CC[C@H](N4)[C@H]2CO3)c2c(F)c(F)ccc2c1 [Example 8-p1] shows Kd strictly lower than 7 nM.
class 1

Origin of values: patent US20240327434A1
